Assay: Toxicity liver stage against HepG2, at 10uM
Assay type: cell-based
Set-up: test concentration 10 uM, cell line HepG2-A16-CD81EGFP
Conditions: human, HepG2-A16-CD81EGFP cells; read-out: INHIBITION
recorded.metric: cytotoxicity at 10 µM (%)
Respond numerically; units are % and should not be typed.

## Task // returns reported cytotoxicity at 10 µM for input Cn1cccc1C(=O)N1CCc2onc(Cn3cccn3)c2C1
## Result -4.72

## Task // returns reported cytotoxicity at 10 µM for input CN(Cc1cccnc1)C1CC2(CCN(C(=O)c3ccnnc3)CC2)C1
## Result 5.41

## Task // returns reported cytotoxicity at 10 µM for input CC(C)(C)c1coc([C@@H]2COCCN2Cc2c[nH]cn2)n1
## Result 1.21

## Task // returns reported cytotoxicity at 10 µM for input CC(C)N(C)C(=O)C1CCC2(CCNCC2)O1 (stereo not given)
## Result -129

## Task // returns reported cytotoxicity at 10 µM for input CCc1cccc(NC(=O)CCC(=O)N(C)Cc2nc(C)c[nH]2)c1
## Result -1.92

## Task // returns reported cytotoxicity at 10 µM for input Cc1ccc2nc(CNc3ccccc3C(=O)NC3CC3)cn2c1
## Result 3.16

## Task // returns reported cytotoxicity at 10 µM for input O=C(NCc1cn2c(n1)CN(Cc1nccs1)CC2)C1CCC1
## Result 4.61

## Task // returns reported cytotoxicity at 10 µM for input OCCn1nccc1C1CCN(CCOc2ccccc2F)CC1
## Result -5.25

## Task // returns reported cytotoxicity at 10 µM for input Fc1ccc(OCCCNC2=NCCCN2)cc1
## Result -7.91

## Task // returns reported cytotoxicity at 10 µM for input Cn1cc(C[C@H]2[C@H](N3CCOCC3)CCN2C2CCOCC2)cn1
## Result 5.13

## Task // returns reported cytotoxicity at 10 µM for input OCc1ccccc1CNCC1CNc2ccnn2C1 (stereo not given)
## Result -11.9

## Task // returns reported cytotoxicity at 10 µM for input O=C(C1SCCc2ccccc21)N1CCC(O)CC1 (stereo not given)
## Result 0.0013

## Task // returns reported cytotoxicity at 10 µM for input Cc1cnn(CC2CCCN2C(=O)CCCc2nc(C)no2)c1 (stereo not given)
## Result 2.86

## Task // returns reported cytotoxicity at 10 µM for input CCOc1ccc(CNCCCn2ccnc2)cc1Br
## Result -6.81

## Task // returns reported cytotoxicity at 10 µM for input CCC[C@H]1CN(Cc2ccc3c(c2)OCCO3)C[C@@H]1NC(=O)COC
## Result -4.19

## Task // returns reported cytotoxicity at 10 µM for input CCn1ncc2c1NC(=O)C(C#N)C21CCCC1 (stereo not given)
## Result -0.242

## Task // returns reported cytotoxicity at 10 µM for input Cc1nc(CNC(=O)c2cc(Cn3ccnc3C(C)C)[nH]n2)sc1C
## Result 2.99

## Task // returns reported cytotoxicity at 10 µM for input CC(C)C(C)N1Cc2cccc(NCC(=O)N(C)C)c2C1 (stereo not given)
## Result 8

## Task // returns reported cytotoxicity at 10 µM for input Cc1ccc(-c2snnc2C(=O)NCCCO)cc1
## Result 6.67

## Task // returns reported cytotoxicity at 10 µM for input COc1ncccc1C(=O)Nc1ccccc1-c1ccc(=O)n(C)n1
## Result -0.843

## Task // returns reported cytotoxicity at 10 µM for input Cc1cccc(OCC(=O)N(C)C2CCN(CC3CCOC3)CC2)c1 (stereo not given)
## Result -6.22

## Task // returns reported cytotoxicity at 10 µM for input COc1cc(NC(=O)N2CCCC2c2ccco2)cc(OC)c1 (stereo not given)
## Result 4.65

## Task // returns reported cytotoxicity at 10 µM for input CC(=O)N1CCN([C@@H]2CC[C@@H](NC(=O)c3cc(C)cs3)[C@H]2O)CC1
## Result 6.02

## Task // returns reported cytotoxicity at 10 µM for input Cc1cc(C)nc(NCCSc2cnn[nH]2)n1
## Result 3.22

## Task // returns reported cytotoxicity at 10 µM for input COC(=O)CC(c1cccnc1)c1oc(C)cc(=O)c1O (stereo not given)
## Result -0.191

---

Record form. Attribute: cytotoxicity at 10 µM. Fill in for each entry.
Assay: Toxicity liver stage against HepG2, at 10uM
Format: cell-based
Set-up: test concentration 10 uM, cell line HepG2-A16-CD81EGFP
Conditions: human, HepG2-A16-CD81EGFP cells; read-out: INHIBITION
Respond numerically; units are % and should not be typed.

## Task // returns reported cytotoxicity at 10 µM for input CCc1ccc(C(=O)NC2CCN(c3cnn(C)c3)C2=O)o1 (configuration not stated)
## Result -6.13

## Task // returns reported cytotoxicity at 10 µM for input CN(Cc1cccc(F)c1)C(=O)CN1CCOC(Cn2cncn2)C1 (configuration not stated)
## Result -2.09

## Task // returns reported cytotoxicity at 10 µM for input CCc1ncc2c(n1)CN(CC(=O)Nc1ccc(Cl)cn1)CC2
## Result 1.47

## Task // returns reported cytotoxicity at 10 µM for input CCN(C)c1ncnc2c1CCN(CC1CCOC1)CC2 (configuration not stated)
## Result -79.3

## Task // returns reported cytotoxicity at 10 µM for input COCCN1CCN(c2ccc(C)nn2)Cc2ccc(C)nc21
## Result -104

## Task // returns reported cytotoxicity at 10 µM for input Cc1cc(S(C)(=O)=O)c(C)c(S(=O)(=O)NC2CCCC2)c1
## Result 12.8

## Task // returns reported cytotoxicity at 10 µM for input CCC(CN1CCCC1)n1cncc1-c1cnn(Cc2ccccc2)c1 (configuration not stated)
## Result 3.92

## Task // returns reported cytotoxicity at 10 µM for input Cc1oc(C(=O)O)cc1S(=O)(=O)Nc1cccc(Cl)c1F
## Result -5.99

## Task // returns reported cytotoxicity at 10 µM for input CCn1cc(NC(=O)NCC2(N3CCOCC3)CCSC2)cn1 (configuration not stated)
## Result -17.1

## Task // returns reported cytotoxicity at 10 µM for input Cn1c(C(=O)NCC2(N)CCCC2)cc2ccccc21
## Result 7.8

## Task // returns reported cytotoxicity at 10 µM for input OCCCN1CCCC1c1cccc(Br)c1 (configuration not stated)
## Result 5.71

## Task // returns reported cytotoxicity at 10 µM for input Cc1ccccc1C(C)NC(=O)Cc1c(C)nc2cc(=O)[nH]n2c1C (configuration not stated)
## Result 10.8

---

Record form. Attribute: cytotoxicity at 10 µM. Fill in for each entry.
Test: Toxicity liver stage against HepG2, at 10uM
Format: cell-based
Parameters: test concentration 10 uM, cell line HepG2-A16-CD81EGFP
Conditions: human, HepG2-A16-CD81EGFP cells; read-out: INHIBITION
Respond numerically; units are % and should not be typed.

## Task // returns reported cytotoxicity at 10 µM for input CCCn1ccc(C(=O)Nc2ccc3c(c2)C(C)(C)C(=O)N3C)n1
## Result 8.44

## Task // returns reported cytotoxicity at 10 µM for input CC(=O)N1CCN(c2cc(N(C)C)cnn2)CC1
## Result 1.37

## Task // returns reported cytotoxicity at 10 µM for input Cc1nc(CN2CCCn3c(nc(Cn4cncn4)cc3=O)C2)cs1
## Result 3.75

## Task // returns reported cytotoxicity at 10 µM for input Cc1cc(C(=O)N2CCN(Cc3ccsc3)CC2)n(C)n1
## Result 1.98

## Task // returns reported cytotoxicity at 10 µM for input O=C(NCCC1=CCCCC1)Nc1cc(C(F)(F)F)c[nH]c1=O
## Result -8.39

## Task // returns reported cytotoxicity at 10 µM for input COc1cccc(NC(=O)Nc2ccc3c(c2)CC(=O)N3)c1
## Result -2.35

## Task // returns reported cytotoxicity at 10 µM for input CC(C)c1cnc(CN2CCCS2(=O)=O)o1
## Result 10.6

## Task // returns reported cytotoxicity at 10 µM for input Cc1nc(N2C[C@H]3CC[C@@H](C2)N3)nc2cc(S(C)(=O)=O)ccc12
## Result -7.71

## Task // returns reported cytotoxicity at 10 µM for input Cn1ccnc1C1CCN(CCN2CCOCC2)CC1
## Result 4.69

## Task // returns reported cytotoxicity at 10 µM for input CC(=O)N(Cc1ncc(C)o1)C1CCN(Cc2cccnc2)C1 (configuration not stated)
## Result 15.3

## Task // returns reported cytotoxicity at 10 µM for input C1CCC(CO[C@@H]2CC[C@H]3[C@H]2OCCN3CC2CCOCC2)C1
## Result 11.4

## Task // returns reported cytotoxicity at 10 µM for input COCc1nnn2c1CN(C(=O)c1c[nH]cn1)CCC2
## Result 2.02
